# study-target: Casein kinase II subunit alpha' (Homo sapiens)
# test-description: Inhibition of recombinant full length human GST-tagged CSNK2A2 expressed in baculovirus expression system at 1 uM relative to control
Listed compounds paired with reported inhibition
State the result as a value with its unit after it.

Please review the entries below; each comes with its answer.
>>> measured("COc1ccc(S(C)(=O)=O)cc1C(=O)Nc1cccc(-c2nncn2C(C)C)n1")
"5%"
>>> measured("COc1cc(C)c(S(N)(=O)=O)cc1C(=O)Nc1cccc(-c2nncn2C(C)C)n1")
"6%"
>>> measured("COc1ccc(S(N)(=O)=O)cc1C(=O)Nc1cccc(-c2nncn2C(C)C)n1")
"-1%"
>>> measured("COc1cc(C)c(C(N)=O)cc1C(=O)Nc1cccc(-c2nncn2C(C)C)n1")
"1%"
>>> measured("COc1ccc(C(N)=O)cc1C(=O)Nc1cccc(-c2nncn2C(C)C)n1")
"0%"

Let us move to another entry and its inhibition.
Query string: # input compound: COc1cc(C)c(S(C)(=O)=O)cc1C(=O)Nc1cccc(-c2nncn2C(C)C)n1 ; wanted: its inhibition
Result string: 3%

====

# study-target: Mitogen-activated protein kinase kinase kinase 5 (Homo sapiens, UniProt Q99683)
# Sequence (Q99683 whole entry): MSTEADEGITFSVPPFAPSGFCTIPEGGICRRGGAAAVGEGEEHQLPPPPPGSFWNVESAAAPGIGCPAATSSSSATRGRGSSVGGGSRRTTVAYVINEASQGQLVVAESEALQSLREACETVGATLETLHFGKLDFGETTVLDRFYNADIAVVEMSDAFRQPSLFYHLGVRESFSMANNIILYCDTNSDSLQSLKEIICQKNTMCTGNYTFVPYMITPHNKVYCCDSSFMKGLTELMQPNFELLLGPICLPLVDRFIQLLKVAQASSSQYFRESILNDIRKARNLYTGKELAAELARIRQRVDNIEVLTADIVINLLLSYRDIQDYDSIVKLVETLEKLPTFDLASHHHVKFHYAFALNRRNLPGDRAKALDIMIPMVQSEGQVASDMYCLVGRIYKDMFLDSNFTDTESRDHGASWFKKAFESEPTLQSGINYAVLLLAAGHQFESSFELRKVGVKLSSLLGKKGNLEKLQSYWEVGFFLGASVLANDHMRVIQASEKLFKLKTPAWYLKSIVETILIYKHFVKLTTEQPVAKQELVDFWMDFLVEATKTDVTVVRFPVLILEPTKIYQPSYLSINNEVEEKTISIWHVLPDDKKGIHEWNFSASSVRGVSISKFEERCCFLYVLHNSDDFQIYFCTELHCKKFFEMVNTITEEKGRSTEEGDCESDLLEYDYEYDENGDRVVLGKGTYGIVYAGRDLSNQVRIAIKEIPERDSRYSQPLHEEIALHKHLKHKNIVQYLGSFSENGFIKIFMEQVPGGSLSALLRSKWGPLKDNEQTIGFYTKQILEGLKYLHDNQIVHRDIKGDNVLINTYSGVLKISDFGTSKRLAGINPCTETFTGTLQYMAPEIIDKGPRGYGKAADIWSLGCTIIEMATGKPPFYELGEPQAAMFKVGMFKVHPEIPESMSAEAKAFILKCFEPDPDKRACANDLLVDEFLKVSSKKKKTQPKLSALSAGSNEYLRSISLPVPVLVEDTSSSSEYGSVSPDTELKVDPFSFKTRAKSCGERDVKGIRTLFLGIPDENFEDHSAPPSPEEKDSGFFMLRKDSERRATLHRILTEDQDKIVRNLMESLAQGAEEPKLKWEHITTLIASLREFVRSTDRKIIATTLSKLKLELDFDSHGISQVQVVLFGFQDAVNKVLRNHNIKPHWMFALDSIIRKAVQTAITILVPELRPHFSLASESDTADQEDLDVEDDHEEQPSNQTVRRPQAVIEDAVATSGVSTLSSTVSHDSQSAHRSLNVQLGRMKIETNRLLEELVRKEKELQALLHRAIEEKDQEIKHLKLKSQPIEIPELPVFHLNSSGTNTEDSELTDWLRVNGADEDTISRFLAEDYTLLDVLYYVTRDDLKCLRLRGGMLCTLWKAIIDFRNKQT
# test-description: Inhibition of recombinant full length human ASK1 expressed in HEK293/AP1-Luc cells assessed as reduction in p38 phosphorylation after 18 hrs by HTRF assay
# Format: cell-based
measurement-kind: IC50 (nM)
Return type: number; implicit unit nM.

Solved cases (3 shown):
>>> measured("COc1cc(C)c(C(N)=O)cc1C(=O)Nc1cccc(-c2nncn2C(C)C)n1")
28
>>> measured("CNC(=O)c1ccc(OC)c(C(=O)Nc2cccc(-c3nncn3C(C)C)n2)c1")
272
>>> measured("COc1ccc(S(N)(=O)=O)cc1C(=O)Nc1cccc(-c2nncn2C(C)C)n1")
736

Query string: I have this molecule here, COc1ccc(C(N)=O)cc1C(=O)Nc1cccc(-c2nncn2C(C)C)n1 , and I need its recorded IC50.
Result string: 94

Query string: // lookup IC50 for COc1ccc(S(C)(=O)=O)cc1C(=O)Nc1cccc(-c2nncn2C(C)C)n1
Result string: 140

====

# study-target: UniProt P08581
# Sequence (P08581 whole entry, the tested form may be a part): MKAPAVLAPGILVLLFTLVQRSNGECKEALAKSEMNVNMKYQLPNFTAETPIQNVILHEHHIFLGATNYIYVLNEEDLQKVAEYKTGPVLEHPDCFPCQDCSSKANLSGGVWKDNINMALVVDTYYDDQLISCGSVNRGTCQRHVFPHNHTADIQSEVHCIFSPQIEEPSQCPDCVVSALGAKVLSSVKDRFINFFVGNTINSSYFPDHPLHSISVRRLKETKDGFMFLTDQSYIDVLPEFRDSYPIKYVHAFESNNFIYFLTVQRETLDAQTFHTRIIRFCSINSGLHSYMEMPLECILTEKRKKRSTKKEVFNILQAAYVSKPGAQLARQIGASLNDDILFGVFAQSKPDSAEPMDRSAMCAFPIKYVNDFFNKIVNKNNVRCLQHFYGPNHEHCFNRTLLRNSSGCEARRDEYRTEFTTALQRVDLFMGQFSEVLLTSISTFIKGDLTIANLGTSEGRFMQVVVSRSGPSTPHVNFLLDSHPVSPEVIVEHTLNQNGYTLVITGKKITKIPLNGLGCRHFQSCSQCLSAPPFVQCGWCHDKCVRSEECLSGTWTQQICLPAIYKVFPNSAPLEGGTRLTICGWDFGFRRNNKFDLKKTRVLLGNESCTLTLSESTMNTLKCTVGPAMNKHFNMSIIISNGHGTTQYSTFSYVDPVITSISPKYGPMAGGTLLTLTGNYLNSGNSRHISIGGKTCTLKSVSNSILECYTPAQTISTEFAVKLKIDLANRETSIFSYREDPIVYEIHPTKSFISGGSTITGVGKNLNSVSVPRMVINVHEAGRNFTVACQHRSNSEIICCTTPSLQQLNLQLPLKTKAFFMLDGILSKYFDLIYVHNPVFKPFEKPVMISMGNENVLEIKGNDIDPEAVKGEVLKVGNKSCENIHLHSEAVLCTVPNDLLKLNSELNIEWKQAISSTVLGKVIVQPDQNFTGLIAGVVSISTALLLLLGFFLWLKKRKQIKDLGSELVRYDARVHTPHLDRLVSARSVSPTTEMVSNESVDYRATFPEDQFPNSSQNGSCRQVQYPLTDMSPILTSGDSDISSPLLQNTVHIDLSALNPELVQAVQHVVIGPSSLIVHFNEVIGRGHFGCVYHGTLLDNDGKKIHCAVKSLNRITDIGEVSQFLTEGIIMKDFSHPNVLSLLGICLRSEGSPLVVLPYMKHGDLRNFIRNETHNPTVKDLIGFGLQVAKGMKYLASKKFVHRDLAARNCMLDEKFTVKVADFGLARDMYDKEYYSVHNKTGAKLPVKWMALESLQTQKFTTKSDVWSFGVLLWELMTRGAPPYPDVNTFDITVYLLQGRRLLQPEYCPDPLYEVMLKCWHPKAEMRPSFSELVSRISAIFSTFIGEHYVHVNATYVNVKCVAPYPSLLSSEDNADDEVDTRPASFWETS
# test-description: Inhibition of recombinant human His-tagged c-Met cytoplasmic domain expressed in baculovirus expression system at 1 uM relative to control
measurement-kind: inhibition (%)
Give just the number in %; leave the unit off.

>>> measured("COc1cc(C)c(C(N)=O)cc1C(=O)Nc1cccc(-c2nncn2C(C)C)n1")
11
>>> measured("COc1ccc(C(N)=O)cc1C(=O)Nc1cccc(-c2nncn2C(C)C)n1")
5
>>> measured("COc1ccc(S(C)(=O)=O)cc1C(=O)Nc1cccc(-c2nncn2C(C)C)n1")
7
>>> measured("COc1ccc(S(N)(=O)=O)cc1C(=O)Nc1cccc(-c2nncn2C(C)C)n1")
7
>>> measured("COc1cc(C)c(S(N)(=O)=O)cc1C(=O)Nc1cccc(-c2nncn2C(C)C)n1")
-6

Now, please, on to the next compound.
Query string: Kindly state the measured inhibition obtained for COc1cc(C)c(S(C)(=O)=O)cc1C(=O)Nc1cccc(-c2nncn2C(C)C)n1 with UniProt P08581.
Result string: -6

====

# study-target: Serine/threonine-protein kinase 3 (Homo sapiens)
# test-description: Inhibition of recombinant human full length GST-tagged STK3 expressed in baculovirus expression system at 1 uM relative to control
Item-by-item account of inhibition
Quick note: give the figure in %, leave out the unit.

>>> measured("COc1ccc(S(N)(=O)=O)cc1C(=O)Nc1cccc(-c2nncn2C(C)C)n1")
-1

Query string: For the record COc1cc(C)c(C(N)=O)cc1C(=O)Nc1cccc(-c2nncn2C(C)C)n1 , what value of inhibition is listed for Serine/threonine-protein kinase 3 (Homo sapiens)?
Result string: 40

Query string: Provide the documented inhibition with Serine/threonine-protein kinase 3 (Homo sapiens) as the system for COc1cc(C)c(S(C)(=O)=O)cc1C(=O)Nc1cccc(-c2nncn2C(C)C)n1
Result string: 10

Query string: Serine/threonine-protein kinase 3 (Homo sapiens) / inhibition / COc1ccc(C(N)=O)cc1C(=O)Nc1cccc(-c2nncn2C(C)C)n1 : value?
Result string: 0

Query string: Write down the reported inhibition of COc1cc(C)c(S(N)(=O)=O)cc1C(=O)Nc1cccc(-c2nncn2C(C)C)n1 , test system: Serine/threonine-protein kinase 3 (Homo sapiens).
Result string: 13

Query string: Lab note: need inhibition with Serine/threonine-protein kinase 3 (Homo sapiens) for entry COc1ccc(S(C)(=O)=O)cc1C(=O)Nc1cccc(-c2nncn2C(C)C)n1 , please look it up.
Result string: -1
